Recorded IC50 values for a group of compounds are listed next.
Biological target: human ALK2 R206H (Homo sapiens, UniProt Q04771, R206H)
Construct: expressed in transfected cells; host or cells: HEK293 (ATCC CRL1573), lentivirus transduction, blasticidin selection
Sequence (Q04771 21-509 R206H): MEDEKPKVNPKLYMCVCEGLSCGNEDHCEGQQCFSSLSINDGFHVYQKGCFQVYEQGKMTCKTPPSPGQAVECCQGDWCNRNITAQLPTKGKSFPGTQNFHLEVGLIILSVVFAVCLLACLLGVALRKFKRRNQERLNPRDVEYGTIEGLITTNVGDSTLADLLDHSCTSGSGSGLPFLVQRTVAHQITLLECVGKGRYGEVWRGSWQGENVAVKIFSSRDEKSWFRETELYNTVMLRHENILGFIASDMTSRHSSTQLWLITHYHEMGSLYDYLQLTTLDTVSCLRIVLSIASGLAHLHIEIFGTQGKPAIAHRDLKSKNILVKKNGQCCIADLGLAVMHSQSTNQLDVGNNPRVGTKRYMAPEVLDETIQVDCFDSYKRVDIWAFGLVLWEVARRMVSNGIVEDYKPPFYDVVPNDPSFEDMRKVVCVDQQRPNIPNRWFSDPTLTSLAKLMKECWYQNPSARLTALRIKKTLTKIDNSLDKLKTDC
Assay: Cell-based ALK2-R206H cell activity assay (Smad1-Ser463/Ser465 phosphorylation by AlphaLISA in HEK293-ALK2-R206H cells)
Conditions: read-out: Cell Line (Cell Assay IC50)

Sample records with IC50:
{"columns": ["compound", "IC50"],
 "data": [
  ["COC1(c2ccc(-c3cc4c(N5CCN(C(=O)[C@H]6C[C@H](C#N)C6)CC5)ccnn4c3)nc2)CCN(C2COC2)CC1", "< 100 nM"],
  ["CCOC(=O)N1CCN(c2ccnn3cc(-c4ccc([C@@]5(O)CCN(C(C)C)C5)cc4)cc23)CC1", "< 100 nM"]
]}

Exercise: Which IC50 is listed for "CO[C@@]1(c2ccc(-c3cc4c(N5CCN(C(=O)OC6COC6)CC5)ccnn4c3)cc2)CCCNC1" ?
Key: < 100 nM

Exercise: Which IC50 is listed for "CCOC(=O)N1CCN(c2ccnn3cc(-c4ccc([C@]5(OCC)CCCNC5)cn4)cc23)CC1" ?
Key: < 100 nM

Exercise: Which IC50 is listed for CC(C)N1CCC(O)(c2ccc(-c3cc4c(N5CCN(C(=O)C6CC6)CC5)ccnn4c3)cc2)C1 (centres unmarked) ?
Key: 100 to 500 nM

Exercise: Which IC50 is listed for "CCOC(=O)N1CCN(c2ccnn3cc(-c4ccc(C5(OC)CCN(C(C)C)CC5)cn4)cc23)CC1" ?
Key: < 100 nM

Exercise: Which IC50 is listed for "CCN1CC(O)(c2ccc(-c3cc4c(N5CCN(C(=O)C6CC6)CC5)ccnn4c3)cc2)C1" ?
Key: < 100 nM

###

Biological target: human ALK2 R206H (Homo sapiens, UniProt Q04771, R206H)
Construct: expressed in transfected cells; host or cells: HEK293 (ATCC CRL1573), lentivirus transduction, blasticidin selection
Assay: Cell-based ALK2-R206H cell activity assay (Smad1-Ser463/Ser465 phosphorylation by AlphaLISA in HEK293-ALK2-R206H cells)
Conditions: read-out: Cell Line (Cell Assay IC50)
pIC50: −log10 of the molar value.
Recorded pIC50 values for a group of compounds are listed next.

Sample records with pIC50:
{"columns": ["compound", "pIC50"],
 "data": [
  ["CC(C)NC(=O)N1CCN(c2ccnn3cc(-c4ccc(C5CCCN5)cn4)cc23)CC1 (centres unmarked)", "6.30 to 7.00"],
  ["CC(C)N1CCC[C@@H](c2ccc(-c3cc4c(N5CCN(C(=O)[C@H]6C[C@H](C#N)C6)CC5)ccnn4c3)nc2)C1", "> 7.00"],
  ["COC1(c2ccc(-c3cc4c(N5CCN(C(=O)OC6COC6)CC5)ccnn4c3)nc2)CCN([C@@H](C)COC(F)F)CC1", "> 7.00"],
  ["O=C(OC1COC1)N1CCN(c2ccnn3cc(-c4ccc(C5CCNCC5)cc4)cc23)CC1", "6.30 to 7.00"],
  ["CCOC1(c2ccc(-c3cc4c(N5CCN(C(=O)NC(C)C)CC5)ccnn4c3)cc2)CCN(C2COC2)CC1", "> 7.00"],
  ["CCN1CCN(c2ccc(-c3cc4c(N5CCN(C(=O)C6CC6)C[C@@H]5C)ccnn4c3)cc2)CC1", "6.30 to 7.00"],
  ["CC(C)N1CCCCC1c1ccc(-c2cc3c(N4CCN(C(=O)C5CC5)CC4)ccnn3c2)cc1 (centres unmarked)", "> 7.00"],
  ["CCOC1(c2ccc(-c3cc4c(N5CCN(C(=O)NC(C)C)CC5)ccnn4c3)nc2)CCN(C[C@H](C)F)CC1", "> 7.00"]
]}

Exercise: Which pIC50 is listed for "CCOC(=O)N1CCN(c2ccnn3cc(-c4ccc([C@@H]5CCCN(C(C)C)C5)cn4)cc23)CC1" ?
Key: > 7.00

Exercise: Which pIC50 is listed for "N#C[C@H]1C[C@@H]1C(=O)N1CCN(c2ccnn3cc(-c4ccc([C@@]5(F)CCCNC5)cc4)cc23)CC1" ?
Key: > 7.00

Exercise: Which pIC50 is listed for CC(C)N1CCC(c2ccc(-c3cc4c(N5CCN(C(=O)OC(CO)C(=O)O)CC5)ccnn4c3)cc2)CC1 (centres unmarked) ?
Key: < 6.30

Exercise: Which pIC50 is listed for "CC(C)N1CC2(CN(c3ccc(-c4cc5c(N6CCN(C(=O)C7CC7)CC6)ccnn5c4)cc3)C2)C1" ?
Key: > 7.00
